# Test system: TK-10 renal
# assay_remarks: NCI-60 one-dose screen, 48 h
# protocol_conditions: 10 µM unless noted
The panel holds about 83,000 compounds, 20% with a hit somewhere; the sample as a whole holds those more often. Activity calls are given as the source filed them. Rule for the calls: active = growth percent below 10; inactive = the rest.
Pick one: Y for active, N for inactive

Example entries and their recorded answers appear below.
O=C1CCC/C=C\C[C@H]2C=C(Cl)C(=O)/C2=C/C[C@H](CCCCC(F)(F)F)OC(=O)CCC/C=C\C[C@H]2C=C(Cl)C(=O)/C2=C/C[C@H](CCCCC(F)(F)F)O1: Y
COC(=O)CCCCCn1c2ccccc2c2c3c(c4c5ccccc5[nH]c4c21)C(=O)N(O)C3=O: N
Cc1cc(N=O)cc(C(C)(C)C)c1O: N

Q: Assay outcome for "O=S(=O)(NCCCNc1cc(-c2cn(-c3ccccc3)nc2-c2cccc(O)c2)ccn1)c1ccc(F)cc1" : what was it?
Result: N

Where do these numbers come from? They come from PubChem BioAssay (NCI).
